Tested on: HepG2
Assay: cytotoxicity call (relative viability < 0.9)
Settings: 10 µM
Screen size: about 39,000 compounds; about 3,300 (8.5%) were called active. Only a selection was taken, and actives are over-represented in it overall.
Classes used: 1 (active), 0 (inactive)

molecule: COc1ccc(CN(C)C[C@@H]2Oc3ccc(NC(=O)Cn4cnnn4)cc3CC(=O)N([C@@H](C)CO)C[C@@H]2C)cc1
group: 0

molecule: Nc1ccn([C@@H]2O[C@H](CO)[C@@H](O)C2(F)F)c(=O)n1
group: 0

molecule: Nc1ccn([C@@H]2O[C@H](CO)[C@@H](O)[C@H]2O)c(=O)n1
group: 0

molecule: C[C@@H]1CN([C@H](C)CO)C(=O)c2cc(NS(=O)(=O)c3ccccc3)ccc2O[C@@H](C)CCCCO[C@@H]1CN(C)Cc1ccc(C(F)(F)F)cc1
group: 0

molecule: CCCNC(=O)C[C@@H]1CC[C@H]2[C@@H](COC[C@@H](O)CN2S(=O)(=O)c2ccc(Oc3ccccc3)cc2)O1
group: 0

molecule: C[C@@H]1CCCCO[C@H](CN(C)Cc2ccc(C(F)(F)F)cc2)[C@H](C)CN([C@@H](C)CO)C(=O)c2cc(NS(=O)(=O)c3ccccc3)ccc2O1
group: 1

molecule: C[C@@H]1CN([C@H](C)CO)C(=O)c2cccc(NC(=O)CCCCCC(=O)Nc3ccccc3N)c2O[C@H]1CN(C)S(C)(=O)=O
group: 0
